# System: MCC-13
# Measurement Notes: qHTS assay to identify novel small-molecules to repurpose for Merkel cell carcinoma treatment (AID 1296009); also: nearly all actives have a fitted effect of over 60% in size
# Test Parameters: MCC and control cell lines, CellTiter-Glo viability, 72 h; series mostly up to 46 µM
Results filed as inconclusive are left out. Calls of active or inactive are those of the source. Calls follow the shape of the dose curve; as a rule, active = well fitted inhibition curve with a large enough effect; inconclusive = small, poorly fitted or top-dose-only effect; inactive = flat fitted curve, though single readings scatter.
Output constraint: value belongs to active, inactive

Problem: Record lookup: outcome of this test for O=C(NC(=O)c1c(F)cccc1F)Nc1cc(Cl)c(OC(F)(F)C(F)C(F)(F)F)cc1Cl (stereo not drawn) ?
Solution: inactive

Problem: Record lookup: outcome of this test for COc1ccc2c3c1O[C@H]1[C@@H](O)C=C[C@H]4[C@@H](C2)N(C)CC[C@@]341 ?
Solution: active

Problem: Record lookup: outcome of this test for COP(=O)(OC)OC=C(Cl)Cl ?
Solution: inactive

Problem: Record lookup: outcome of this test for C[N+]1(CCC(C(N)=O)(c2ccccc2)c2ccccc2)CCCCC1 ?
Solution: inactive

Problem: Record lookup: outcome of this test for CCCN(CCC)CCc1c[nH]c2ccccc12 ?
Solution: inactive

Problem: Record lookup: outcome of this test for CC[C@H]1C[C@H]2[C@@H]3CCC4=CC(=O)CC[C@@H]4[C@H]3CC[C@]2(C)[C@H]1O ?
Solution: inactive

Problem: Record lookup: outcome of this test for O=C(CCCN1CCC(n2c(=O)[nH]c3ccccc32)CC1)c1ccc(F)cc1 ?
Solution: inactive

Problem: Record lookup: outcome of this test for CN1C2CCC(C)(C)C1CC(OC(=O)C(O)(c1cccs1)c1cccs1)C2 (stereo not drawn) ?
Solution: inactive

Problem: Record lookup: outcome of this test for CCOP(=S)(OCC)O/N=C(\C#N)c1ccccc1 ?
Solution: inactive

Problem: Record lookup: outcome of this test for CC1COC2(c3ccccc3Cl)c3cc(Cl)ccc3NC(=O)CN12 (stereo not drawn) ?
Solution: inactive

Problem: Record lookup: outcome of this test for Nc1ccc(Cl)cc1C(=O)c1ccccc1F ?
Solution: inactive

Problem: Record lookup: outcome of this test for CN1C[C@@H](NS(=O)(=O)N(C)C)C[C@@H]2c3cccc4c3c(cn4C)C[C@H]21 ?
Solution: inactive

Problem: Record lookup: outcome of this test for ClCCCN1CCN(c2cccc(Cl)c2)CC1 ?
Solution: inactive

Problem: Record lookup: outcome of this test for C[C@]12CC[C@H]3[C@@H](CC=C4C[C@@H](O)CC[C@@]43C)[C@@H]1CC[C@@H]2O ?
Solution: inactive

Problem: Record lookup: outcome of this test for C=CC[C@]1(O)CC[C@H]2[C@@H]3CCC4=CC(=O)CCC4=C3C=C[C@@]21C ?
Solution: inactive

Problem: Record lookup: outcome of this test for CCOC(=O)c1cncn1C(C)c1ccccc1 (stereo not drawn) ?
Solution: inactive

Problem: Record lookup: outcome of this test for C1CN2CCC1CC2 ?
Solution: inactive

Problem: Record lookup: outcome of this test for Cc1c(Cl)c(=O)oc2cc(OP(=O)(OCCCl)OCCCl)ccc12 ?
Solution: inactive

Problem: Record lookup: outcome of this test for CC(Cc1ccccc1)NCCCCl (stereo not drawn) ?
Solution: inactive

Problem: Record lookup: outcome of this test for C[C@]12Cc3nonc3C[C@@H]1CC[C@@H]1[C@@H]2CC[C@@]2(C)[C@H]1CC[C@]2(C)O ?
Solution: inactive

Problem: Record lookup: outcome of this test for ClCc1cccc(Cl)c1 ?
Solution: inactive

Problem: Record lookup: outcome of this test for C#C[C@]1(O)C=C[C@H]2[C@@H]3CCC4=CC(=O)CC[C@@H]4[C@H]3CC[C@@]21CC ?
Solution: inactive

Problem: Record lookup: outcome of this test for COc1ccc(C(=O)N2CCCC2=O)cc1 ?
Solution: inactive
